selective drug sensitivity score listing for selected compounds.
system: COG-LL-319h; assay: selective drug sensitivity score (sDSS, relative to normal bone marrow) (sDSS (score)); higher = more potent and effective on the cell line relative to normal bone marrow cells; settings: 72 h;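 further: ALL cell lines in 384-well plates, five doses spanning 10,000-fold, each plate scaled between vehicle and 100 µmol/L benzalkonium chloride controls, sDSS an adapted area-under-curve metric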
Write the number on its own, no unit after it.

Entry Cc1ccc(-n2nc(C(C)(C)C)cc2NC(=O)Nc2ccc(OCCN3CCOCC3)c3ccccc23)cc1 [Doramapimod] (top concentration 10000 nM) needs its selective drug sensitivity score filled in; supply it.
1.06

----------
tested on: PF-382; test: selective drug sensitivity score (sDSS, relative to normal bone marrow) (sDSS (score)); higher = more potent and effective on the cell line relative to normal bone marrow cells; settings: 72 h
metric: selective drug sensitivity score
Write the number on its own, no unit after it.

# compound, metric, val
measured = [
    ("CC1(C)CCC(c2ccc(Cl)cc2)=C(CN2CCN(c3ccc(C(=O)NS(=O)(=O)c4ccc(N[C@H](CCN5CCOCC5)CSc5ccccc5)c(S(=O)(=O)C(F)(F)F)c4)cc3)CC2)C1 [Navitoclax] (top concentration 10000 nM)", "selective drug sensitivity score", 13.7),
    ("COc1cc2ncnc(Nc3ccc(F)c(Cl)c3)c2cc1OCCCN1CCOCC1 [Gefitinib] (top concentration 10000 nM)", "selective drug sensitivity score", 0.26),
    ("CC(=O)O[C@@]12CO[C@@H]1C[C@H](O)[C@@]1(C)C(=O)[C@H](O)C3=C(C)[C@@H](OC(=O)[C@H](O)[C@@H](NC(=O)OC(C)(C)C)c4ccccc4)C[C@@](O)([C@@H](OC(=O)c4ccccc4)[C@H]21)C3(C)C [Docetaxel] (top concentration 1000 nM)", "selective drug sensitivity score", 10.5),
    ("CC(O)(CS(=O)(=O)c1ccc(F)cc1)C(=O)Nc1ccc(C#N)c(C(F)(F)F)c1 (stereo not given) [Bicalutamide] (top concentration 10000 nM)", "selective drug sensitivity score", -1.38),
]

Okay, next one:
Entry CCCCC(=O)OCC(=O)[C@]1(O)Cc2c(O)c3c(c(O)c2[C@@H](O[C@H]2C[C@H](NC(=O)C(F)(F)F)[C@H](O)[C@H](C)O2)C1)C(=O)c1c(OC)cccc1C3=O [Valrubicin] (top concentration 5000 nM) needs its selective drug sensitivity score filled in; supply it.
1.48

----------
tested on: ALL-PO; experiment: selective drug sensitivity score (sDSS, relative to normal bone marrow) (sDSS (score)); higher = more potent and effective on the cell line relative to normal bone marrow cells; conditions: 72 h
selective drug sensitivity score listing for selected compounds.
Write the number on its own, no unit after it.

# compound, target, val
records = [
    ("CON(C)C(=O)N1N=C(c2cc(F)ccc2F)S[C@@]1(CCCN)c1ccccc1 [Filanesib] (top concentration 1000 nM)", "ALL-PO", 6.7),
]

Okay, next one:
State the measured selective drug sensitivity score (ALL-PO) of CC(C)C[C@H](NC(=O)[C@@H](COC(C)(C)C)NC(=O)[C@H](Cc1ccc(O)cc1)NC(=O)[C@H](CO)NC(=O)[C@H](Cc1c[nH]c2ccccc12)NC(=O)[C@H](Cc1cnc[nH]1)NC(=O)[C@@H]1CCC(=O)N1)C(=O)N[C@@H](CCCNC(=N)N)C(=O)N1CCC[C@H]1C(=O)NNC(N)=O [Goserelin] (top concentration 10000 nM)
-0.06

----------
selective drug sensitivity score listing for selected compounds.
test system: MHH-CALL-4; assay: selective drug sensitivity score (sDSS, relative to normal bone marrow) (sDSS (score)); higher = more potent and effective on the cell line relative to normal bone marrow cells; conditions: 72 h
Write the number on its own, no unit after it.

# annotated cases, reported selective drug sensitivity score shown
# compound, selective drug sensitivity score
data = [
    ("Cn1cnc2c(F)c(Nc3ccc(Br)cc3Cl)c(C(=O)NOCCO)cc21 [Selumetinib] (top concentration 10000 nM)", 4.2),
    ("CN1CCN(C2CCN(C(=O)Nc3cc(Oc4ccc(NC(=O)C5(C(=O)Nc6ccc(F)cc6)CC5)c(F)c4)ccn3)CC2)CC1 [Golvatinib] (top concentration 2500 nM)", -0.14),
    ("CC(=O)c1c(C)c2cnc(Nc3ccc(N4CCNCC4)cn3)nc2n(C2CCCC2)c1=O [Palbociclib] (top concentration 10000 nM)", -1.82),
    ("Cc1ncc(Cl)cc1NCc1ccc(C(=O)N[C@@H](CC2CCCC2)C(=O)NC2CC2)s1 (top concentration 5000 nM)", -0.94),
    ("N#CC1(c2ccc(NC(=O)c3cccnc3NCc3ccncc3)cc2)CCCC1 [Apatinib] (top concentration 10000 nM)", 0),
]

Okay, next one:
Entry O=C(Nc1cnn2ccc(N3CCC[C@@H]3c3cc(F)ccc3F)nc12)N1CC[C@H](O)C1 [Larotrectinib] (top concentration 1000 nM) needs its selective drug sensitivity score filled in; supply it.
-0.62
